# key: entry, value: Population Mitochondria Different-Phenotype (%)
test system: Fibroblast; assay: Multiplex assay against human fibroblast; assay type: toxicity, cell-based; settings: 48 h, 1 µM, compound concentration 1 uM, replicate 1
Give the quantity in %, number only.

Before answering, review these 2 worked examples.
CC(=O)c1cc(-c2cc(C(=O)NC3CC3)ccc2C)c2ncccn12 :: 2
Cc1cc2c(cc1N1C(=O)c3cccc4c(CCCO)ccc(c34)C1=O)n(C)c(=O)n2C :: 2

[in] Would you kindly share the measured Population Mitochondria Different-Phenotype (%) for `COc1cc2c(NC3CCN(C(C)C)CC3)nc(N3CCC(F)(F)CC3)nc2cc1OCCCN1CCCC1` ?
[out] 2

---

tested on: Fibroblast; experiment: Multiplex assay against human fibroblast; type: toxicity, cell-based; conditions: 24 h, 1 µM, compound concentration 1 uM, replicate 1
Each entry below carries its recorded Population Apoptotic (%).
# value in %; strip the unit string

CC(C)Oc1ccc(C(=O)N[C@H](CNC(=O)CN(C)C)Cc2ccc(-c3cn4cccc([C@H](C)O)c4n3)cc2)cc1Cl [GSK-923295A] :: 65

[in] Entry `Cl.Cl.Nc1ncnc2c1c(-c1cccc(OCc3ccccc3)c1)cn2[C@H]1C[C@@H](CN2CCC2)C1` : reported Population Apoptotic (%) = ?
[out] 53

[in] What does the data say about its Population Apoptotic (%)? Entry: CN(C)C/C=C/C(=O)Nc1cc2c(Nc3ccc(F)c(Cl)c3)ncnc2cc1O[C@H]1CCOC1.O=C(O)/C=C\C(=O)O.O=C(O)/C=C\C(=O)O [AFATINIB DIMALEATE]
[out] 72

[in] Please give the measured Population Apoptotic (%) for this compound: `Nc1ccc(C(=O)Nc2cccc(-c3nc(N4CCOCC4)c4oc5ncccc5c4n3)c2)cn1`
[out] 38

---

system: HEK-293T; experiment: Multiplex assay against HEK293T; assay type: toxicity, cell-based; conditions: human, 12 h, 10 µM, compound concentration 10 uM, replicate 1
assay-readout: Population Hoechst High Intensity Objects (%)
Give just the number in %; leave the unit off.

[in] Look up Population Hoechst High Intensity Objects (%) for this compound: `COc1ccc(NS(=O)(=O)c2sc3ccc(Cl)cc3c2C)cc1N1CCNCC1.Cl`
[out] 12

[in] Recorded Population Hoechst High Intensity Objects (%) of `Cl.Cl.Nc1ncnc2c1c(-c1cccc(OCc3ccccc3)c1)cn2[C@H]1C[C@@H](CN2CCC2)C1` , please.
[out] 20

[in] GET /values?readout=Population Hoechst High Intensity Objects (%)&item= `CCc1cc2c(cc1CC)CC(NC[C@H](O)c1ccc(O)c3[nH]c(=O)ccc13)C2`
[out] 30

[in] GET /values?readout=Population Hoechst High Intensity Objects (%)&item= `COc1cc2c(NC3CCN(C(C)C)CC3)nc(N3CCC(F)(F)CC3)nc2cc1OCCCN1CCCC1`
[out] 18

[in] What value of measured Population Hoechst High Intensity Objects (%) is listed for `c1ccc2oc(-c3csc(C4CCN(Cc5nc6ncccc6[nH]5)CC4)n3)cc2c1` ?
[out] 14

[in] For the compound `CN(C)CCOc1ccc(-c2nc(-c3ccncc3)c(-c3ccc4c(c3)CC/C4=N\O)[nH]2)cc1` , what Population Hoechst High Intensity Objects (%) is on record?
[out] 9

[in] # Population Hoechst High Intensity Objects (%) lookup, item `CC(C)N1CCC(C)(C)c2cc(C#Cc3ccc(C(=O)O)cc3)ccc21`
[out] 64

[in] Looking for the measured Population Hoechst High Intensity Objects (%) of `Cc1cn(-c2cc(NC(=O)c3ccc4c(c3)CN(c3cncnc3)C[C@@H]4C)cc(C(F)(F)F)c2)cn1` , can you help?
[out] 13

[in] Reported Population Hoechst High Intensity Objects (%), compound `Nc1ccc(C(=O)Nc2cccc(-c3nc(N4CCOCC4)c4oc5ncccc5c4n3)c2)cn1` : ____
[out] 25

[in] Consider the compound shown here: `O=C(O)c1ccc2cc(-c3ccc(O)c(C45CC6CC(CC(C6)C4)C5)c3)ccc2c1` What is its recorded Population Hoechst High Intensity Objects (%)?
[out] 15

[in] Population Hoechst High Intensity Objects (%) for `CNC(=O)c1cc(Oc2ccc(NC(=O)Nc3cc(C(C)(C)C)nn3-c3ccc4ncccc4c3)c(F)c2)ccn1` ?
[out] 16

[in] Consider the compound shown here: `Cc1cc2c(cc1N1C(=O)c3cccc4c(CCCO)ccc(c34)C1=O)n(C)c(=O)n2C` What is its recorded Population Hoechst High Intensity Objects (%)?
[out] 9

[in] Look at this compound and give its reported Population Hoechst High Intensity Objects (%). `CCCn1c(=O)c2[nH]c(C34CC5CC(CC3C5)C4)nc2n(CCC)c1=O`
[out] 15

---

tested on: Fibroblast; assay: Multiplex assay against human fibroblast; format: toxicity, cell-based; details: 24 h, 1 µM, compound concentration 1 uM, replicate 2
Response key: TRUE means Population Apoptotic (%) >= 30%; FALSE means Population Apoptotic (%) < 30%.

CCC(=O)O[C@]1(C(=O)SCF)[C@H](C)C[C@H]2[C@@H]3C[C@H](F)C4=CC(=O)C=C[C@]4(C)[C@@]3(F)[C@@H](O)C[C@@]21C [FLUTICASONE PROPIONATE] :: FALSE
Cl.Cl.NC1(c2ccc(-c3nc4ccn5c(=O)[nH]nc5c4cc3-c3ccccc3)cc2)CCC1 :: TRUE

[in] Check the entry `CC(=O)c1cc(-c2cc(C(=O)NC3CC3)ccc2C)c2ncccn12` : does Population Apoptotic (%) equal or exceed 30%?
[out] FALSE

[in] API: above_or_equal(metric=Population Apoptotic (%), cutoff=30%) for item CC(C)(C)c1cnc(CSc2cnc(NC(=O)C3CCNCC3)s2)o1 [BMS-387032]
[out] TRUE

[in] Decide: is the reported value of Population Apoptotic (%) for `Cl.Cl.Nc1ncnc2c1c(-c1cccc(OCc3ccccc3)c1)cn2[C@H]1C[C@@H](CN2CCC2)C1` equal to or greater than 30%?
[out] FALSE

---

system: Fibroblast; assay: Multiplex assay against human fibroblast; assay type: toxicity, cell-based; details: 12 h, 10 µM, compound concentration 10 uM, replicate 1
criterion met if Population Membrane Permeable-Phenotype (%) is below 10%. criterion not met if not; exact matches included in criterion not met.

Some solved cases for reference:
CC(C)(C)c1cnc(CSc2cnc(NC(=O)C3CCNCC3)s2)o1 :: criterion met
CNc1oc(-c2cccc3ccccc23)nc1C#N :: criterion met
c1ccc2oc(-c3csc(C4CCN(Cc5nc6ncccc6[nH]5)CC4)n3)cc2c1 :: criterion met
CCCn1c(=O)c2[nH]c(C34CC5CC(CC3C5)C4)nc2n(CCC)c1=O :: criterion not met
CN(C)C/C=C/C(=O)Nc1cc2c(Nc3ccc(F)c(Cl)c3)ncnc2cc1O[C@H]1CCOC1.O=C(O)/C=C\C(=O)O.O=C(O)/C=C\C(=O)O [AFATINIB DIMALEATE] :: criterion not met
Cc1c(Oc2ccc(F)cc2)c(OC(C)C)nn1-c1ccc(C2CC2)cn1 :: criterion met
CCOc1cc2ncc(C#N)c(Nc3ccc(OCc4cccc(F)c4)c(Cl)c3)c2cc1NC(=O)/C=C/CN(C)C :: criterion not met

[in] Check if Population Membrane Permeable-Phenotype (%) falls below 10% for `CCOc1cc(N2CCC(O)CC2)ccc1Nc1ncc2c(n1)N(C1CCCC1)CCC(=O)N2C` .
[out] criterion met

---

test system: Fibroblast; experiment: Multiplex assay against human fibroblast; type: toxicity, cell-based; details: 48 h, 1 µM, compound concentration 1 uM, replicate 1
The label is true for Population Apoptotic (%) below 50% and false for Population Apoptotic (%) equal to or exceeding 50%.

Solved cases (4 shown):
CCCn1c(=O)c2[nH]c(C34CC5CC(CC3C5)C4)nc2n(CCC)c1=O :: true
Cc1nc(Cc2cccc(C(F)(F)F)c2)sc1-c1ccc(C(N)=O)nc1 [TP-024n] :: false
CCC(=O)O[C@]1(C(=O)SCF)[C@H](C)C[C@H]2[C@@H]3C[C@H](F)C4=CC(=O)C=C[C@]4(C)[C@@]3(F)[C@@H](O)C[C@@]21C [FLUTICASONE PROPIONATE] :: false
CCc1cc2c(cc1CC)CC(NC[C@H](O)c1ccc(O)c3[nH]c(=O)ccc13)C2 :: true

Please turn your attention to the following entry.
[in] Lab note: confirm whether the reported Population Apoptotic (%) for this molecule is below 50%, equality not counting. molecule: CCn1c(-c2nonc2N)nc2cnc(Oc3cccc(NC(=O)c4ccc(OCCN5CCOCC5)cc4)c3)cc21 [GSK-269962A]
[out] false

---

system: HEK-293T; experiment: Multiplex assay against HEK293T; assay type: toxicity, cell-based; settings: human, 24 h, 1 µM, compound concentration 1 uM, replicate 1
Binary classification by Population Mitochondria Different-Phenotype (%), with 40% as an inclusive lower bound for met; all other cases are not met.

COc1cc2c(NC3CCN(C(C)C)CC3)nc(N3CCC(F)(F)CC3)nc2cc1OCCCN1CCCC1 :: met
CN(C)C/C=C/C(=O)Nc1cc2c(Nc3ccc(F)c(Cl)c3)ncnc2cc1O[C@H]1CCOC1.O=C(O)/C=C\C(=O)O.O=C(O)/C=C\C(=O)O [AFATINIB DIMALEATE] :: not met
c1ccc2oc(-c3csc(C4CCN(Cc5nc6ncccc6[nH]5)CC4)n3)cc2c1 :: not met
COc1ccc(NS(=O)(=O)c2sc3ccc(Cl)cc3c2C)cc1N1CCNCC1.Cl :: met
CC(C)N1CCC(C)(C)c2cc(C#Cc3ccc(C(=O)O)cc3)ccc21 :: met
CCOc1cc2ncc(C#N)c(Nc3ccc(OCc4cccc(F)c4)c(Cl)c3)c2cc1NC(=O)/C=C/CN(C)C [HKI-357] :: not met
Cl.Cl.Nc1ncnc2c1c(-c1cccc(OCc3ccccc3)c1)cn2[C@H]1C[C@@H](CN2CCC2)C1 :: met
CCC(=O)O[C@]1(C(=O)SCF)[C@H](C)C[C@H]2[C@@H]3C[C@H](F)C4=CC(=O)C=C[C@]4(C)[C@@]3(F)[C@@H](O)C[C@@]21C [FLUTICASONE PROPIONATE] :: met

[in] Evaluate `CC(=O)c1cc(-c2cc(C(=O)NC3CC3)ccc2C)c2ncccn12` : Population Mitochondria Different-Phenotype (%) at minimum 40%?
[out] met

Attribution: ChEMBL document CHEMBL4689842
